Reference source: patent US8143257B2

System: hypoxia-inducible endogenous VEGF expression
Experiment: Assay to evaluate effect on hypoxia-inducible endogenous VEGF expression (VEGF ELISA, HeLa cells)
Assay type: cell-based
Conditions: Homo sapiens; HeLa cells cultured 24-48 hours under hypoxic conditions (1% O2, 5% CO2); VEGF in conditioned media by ELISA; read-out: ELISA EC50 (effective concentration required to lower the amount of VEGF translation by 50%)
pEC50: −log10 of the molar value.
METRIC: pEC50

MOLECULE: O=C(Oc1c(Cl)cc(Cl)cc1Cl)N1CCc2ccccc21
METRIC: pEC50
ENDPOINT VALUE: < 4.52
//
MOLECULE: O=C(Nc1ccc2ccccc2c1)N1CCC(Cc2ccccc2)CC1
METRIC: pEC50
ENDPOINT VALUE: 5.36
//
MOLECULE: CC(=O)c1c(OC(=O)N2CCC(C)CC2)ccc2ccccc12
METRIC: pEC50
ENDPOINT VALUE: 5.73
//
MOLECULE: O=C(Oc1ccc2cc(Br)ccc2c1Br)N1CCCCC1
METRIC: pEC50
ENDPOINT VALUE: < 4.52
//
MOLECULE: CC1CCN(C(=O)Oc2c(Cl)cc(Cl)cc2Cl)CC1
METRIC: pEC50
ENDPOINT VALUE: < 4.52
//
MOLECULE: O=C(NCC1CCCCC1)Oc1ccc2ccccc2c1Br
METRIC: pEC50
ENDPOINT VALUE: < 4.52
//
MOLECULE: CS(=O)(=O)Nc1c(OC(=O)N2CCC(C(O)(c3ccccc3)c3ccccc3)CC2)ccc2ccccc12
METRIC: pEC50
ENDPOINT VALUE: < 5.30
//
MOLECULE: CC1CC(C)CN(C(=O)Nc2ccc3ccccc3c2)C1 (stereo not shown)
METRIC: pEC50
ENDPOINT VALUE: < 5.00
//
MOLECULE: Cc1ccc2cc(OC(=O)N3CCN(c4ccccc4)CC3)ccc2n1
METRIC: pEC50
ENDPOINT VALUE: < 4.52
//
MOLECULE: O=C(Oc1c(Cl)cc(Cl)cc1Cl)N1CCCC1
METRIC: pEC50
ENDPOINT VALUE: 4.64
//
MOLECULE: O=C(Oc1cc(Cl)c(Cl)cc1Cl)N1CCC(Cc2ccccc2)CC1
METRIC: pEC50
ENDPOINT VALUE: 5.15
//
MOLECULE: COc1ccc2ccc(OC(=O)N3CCN(c4ccc(Cl)cc4)CC3)c(Br)c2c1
METRIC: pEC50
ENDPOINT VALUE: < 5.00
//
MOLECULE: O=C(Oc1cc2ccccc2cn1)N1CCN(c2ccccc2)CC1
METRIC: pEC50
ENDPOINT VALUE: < 4.52
//
MOLECULE: CC1CC(C)CN(C(=O)Oc2ccc3ccccc3c2NS(C)(=O)=O)C1 (stereo not shown)
METRIC: pEC50
ENDPOINT VALUE: < 5.30
//
MOLECULE: CC(=O)c1c(OC(=O)N2CCCC2)ccc2ccccc12
METRIC: pEC50
ENDPOINT VALUE: < 4.52
//
MOLECULE: Cc1ccc2cc(OC(=O)N3CCC(Cc4ccccc4)CC3)ccc2n1
METRIC: pEC50
ENDPOINT VALUE: < 4.52
//
MOLECULE: CC1CCCCN1C(=O)Oc1cc(Cl)c(Cl)cc1Cl (stereo not shown)
METRIC: pEC50
ENDPOINT VALUE: 4.98
//
MOLECULE: O=C(Oc1cc2ccccc2cn1)N1CCC(Cc2ccccc2)CC1
METRIC: pEC50
ENDPOINT VALUE: < 4.52
//
MOLECULE: O=C(Oc1cc(Cl)c(Cl)cc1Cl)N1CCCc2ccccc21
METRIC: pEC50
ENDPOINT VALUE: 4.95
//
MOLECULE: O=C(Oc1cc2ccccc2cn1)N1CCCc2ccccc21
METRIC: pEC50
ENDPOINT VALUE: < 4.52
//
MOLECULE: O=C(Oc1cc(Cl)c(Cl)cc1Cl)N1CCc2ccccc2C1
METRIC: pEC50
ENDPOINT VALUE: 4.73
//
MOLECULE: O=C(Oc1cc(Cl)c(Cl)cc1Cl)N1CCc2ccccc21
METRIC: pEC50
ENDPOINT VALUE: < 4.52
